- tested_target: EP300 (P300(1048-1664)) (Homo sapiens, UniProt Q09472)
- Construct: P300(1048-1664)
- Sequence (Q09472 1048-1664): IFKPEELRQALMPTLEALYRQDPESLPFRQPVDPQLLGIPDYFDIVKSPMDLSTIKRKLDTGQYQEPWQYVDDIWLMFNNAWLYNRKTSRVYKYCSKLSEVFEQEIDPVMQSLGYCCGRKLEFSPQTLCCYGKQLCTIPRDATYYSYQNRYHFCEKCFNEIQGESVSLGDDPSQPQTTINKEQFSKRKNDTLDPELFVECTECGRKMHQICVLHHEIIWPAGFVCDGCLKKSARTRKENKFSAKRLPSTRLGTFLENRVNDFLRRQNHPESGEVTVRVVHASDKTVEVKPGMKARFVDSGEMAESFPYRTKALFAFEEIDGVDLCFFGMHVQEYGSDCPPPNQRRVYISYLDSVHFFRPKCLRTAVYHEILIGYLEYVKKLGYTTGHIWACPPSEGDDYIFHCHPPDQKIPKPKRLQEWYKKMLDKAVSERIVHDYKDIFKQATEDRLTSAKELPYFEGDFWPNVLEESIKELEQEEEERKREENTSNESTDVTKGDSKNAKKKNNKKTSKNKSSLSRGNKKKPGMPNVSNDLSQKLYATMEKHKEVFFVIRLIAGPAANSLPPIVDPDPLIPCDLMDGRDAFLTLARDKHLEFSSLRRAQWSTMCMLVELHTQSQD
- protocol: Biochemical assay for EP300, SAMDI
- stated_conditions: EP300, SAMDI; read-out: EP300 Biochemistry IC50
pIC50: −log10 of the molar value.
recorded_endpoint: pIC50

Some solved entries appear below for comparison.
CCn1ncc(CN(C)C(=O)c2cc(-c3ccc(NCC(O)CNC)c(C)n3)nc3ccc(Cl)cc23)c1C (stereo not shown) ... 8.24
CCn1ncc(CN(C)C(=O)c2cc(-c3cc(C(=O)NC)n(C)n3)nc3ccc(Cl)cc23)c1C ... 8.70
CCn1ncc(CN(C)C(=O)c2nc(N3CCc4cn[nH]c4C3)nc3ccc(Cl)cc23)c1C ... 5.21
CCn1ncc(CN(C)C(=O)c2nc(-c3ccc(OCCNC(=O)OC(C)(C)C)c(C)c3)nc3ccc(Cl)cc23)c1C ... 5.09

a: Cc1nc(-c2cc(C(=O)N(C)Cc3cnc(C(F)(F)F)n3C)c3cc(Cl)ccc3n2)ccc1NCCN(C)C
b: CCn1ncc(CN(C)C(=O)c2nc(-c3cc(C#N)cc(NCCNC)c3)nc3ccc(Cl)cc23)c1C
q: Quick check, higher pIC50 between a and b ? Let me know the label of the one you choose.
a: b

====

- tested_target: CREBBP (1084-1701) (Homo sapiens, UniProt Q92793)
- Construct: measured in the following biochemical assay using CREBBP (1084-1701); purchased
- Sequence (Q92793 1084-1701): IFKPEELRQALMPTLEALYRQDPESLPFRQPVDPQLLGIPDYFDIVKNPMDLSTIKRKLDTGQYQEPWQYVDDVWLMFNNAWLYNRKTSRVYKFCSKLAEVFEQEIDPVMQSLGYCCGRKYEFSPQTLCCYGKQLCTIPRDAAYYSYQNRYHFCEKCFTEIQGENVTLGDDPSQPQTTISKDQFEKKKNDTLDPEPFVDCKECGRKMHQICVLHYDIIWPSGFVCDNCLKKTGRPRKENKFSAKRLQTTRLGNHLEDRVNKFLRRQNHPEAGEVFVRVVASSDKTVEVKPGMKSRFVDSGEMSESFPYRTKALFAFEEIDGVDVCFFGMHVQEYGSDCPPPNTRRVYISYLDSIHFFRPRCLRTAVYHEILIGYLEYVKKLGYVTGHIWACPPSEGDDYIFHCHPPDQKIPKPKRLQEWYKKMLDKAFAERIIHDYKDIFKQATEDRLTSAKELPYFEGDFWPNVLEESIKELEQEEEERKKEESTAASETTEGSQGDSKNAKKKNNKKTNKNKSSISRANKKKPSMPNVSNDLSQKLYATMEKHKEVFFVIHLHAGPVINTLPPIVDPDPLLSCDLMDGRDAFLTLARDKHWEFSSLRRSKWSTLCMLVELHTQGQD
- protocol: Biochemical assay for CREBBP (1084-1701), SAMDI
- stated_conditions: SAMDI, read-out: CREBBP Biochemistry IC50
pIC50: −log10 of the molar value.
recorded_endpoint: pIC50

CCn1ncc(CN(C)C(=O)c2nc(-c3cc(Cl)cc(OCCNC)c3)nc3ccc(Cl)cc23)c1C ... 7.64
CCn1ncc(CN(C)C(=O)c2cc(-n3cc(C)cn3)nc3ccc(Cl)cc23)c1C ... 5.13
CCn1ncc(CN(C)C(=O)c2cc(-c3ccccc3)nc3ccc(OC)cc23)c1C ... 4.18
CCn1ncc(CN(C)C(=O)c2nc(-c3ccc4c(N)[nH]nc4c3C)nc3ccc(Cl)cc23)c1C ... 7.21
CCn1ncc(CN(C)C(=O)c2nc(-c3ccc(OCCNC)c(Cl)c3)nc3ccc(CN(C)C)cc23)c1C ... 4.42

1: CCn1ncc(CN(C)C(=O)c2nc(-c3cc(C#N)cc(NCCNC)c3)nc3ccc(Cl)cc23)c1C
2: CCn1ncc(CN(C)C(=O)c2nc(-c3cccc(N)n3)nc3ccc(Cl)cc23)c1C
3: CCn1ncc(CN(C)C(=O)c2nc(-c3ccc(OCCCNC)c(C)c3)nc3ccc(Cl)cc23)c1C [Compound 29]
q: # sort list by recorded pIC50, greatest to least A ranking is expressed here by listing the labels in the requested order.
a: 1, 3, 2
(1: 7.82, 3: 7.55, 2: 5.26)

I: CCn1ncc(CN(C)C(=O)c2cc(-c3ccccc3F)nc3ccccc23)c1C
II: CCn1ncc(CN(C)C(=O)c2nc(-c3ccc(OCCCNC)c(OC)c3)nc3ccc(Cl)cc23)c1C
III: CCn1ncc(CN(C)C(=O)c2cc(-c3cc(C(=O)NC)n(C)n3)nc3ccc(COC)cc23)c1C
IV: CCn1ncc(CN(C)C(=O)c2nc(-c3cc4c(NC)n[nH]c4cc3C)nc3ccc(Br)cc23)c1C
V: CCn1ncc(CN(C)C(=O)c2nc(-c3cc(C)cc(NC(=O)CNC)c3)nc3ccc(Cl)cc23)c1C
q: # sort list by recorded pIC50, greatest to least A ranking is expressed here by listing the labels in the requested order.
a: V, IV, III, II, I

1: CCn1ncc(CN(C)C(=O)c2cc(-c3ccc(NC)c(C)n3)nc3ccc(Cl)cc23)c1C
2: CCn1ncc(CN(C)C(=O)c2nc(-c3cnn(C4CCNC4)c3)nc3ccc(Cl)cc23)c1C (stereo not shown)
q: Quick check, higher pIC50 between 1 and 2 ? Let me know the label of the one you choose.
a: 1

Where do the numbers come from? From patent US20220144812A1.
